- SYSTEM: Prostaglandin G/H synthase 1 (Homo sapiens)
- Sequence (P23219 whole entry): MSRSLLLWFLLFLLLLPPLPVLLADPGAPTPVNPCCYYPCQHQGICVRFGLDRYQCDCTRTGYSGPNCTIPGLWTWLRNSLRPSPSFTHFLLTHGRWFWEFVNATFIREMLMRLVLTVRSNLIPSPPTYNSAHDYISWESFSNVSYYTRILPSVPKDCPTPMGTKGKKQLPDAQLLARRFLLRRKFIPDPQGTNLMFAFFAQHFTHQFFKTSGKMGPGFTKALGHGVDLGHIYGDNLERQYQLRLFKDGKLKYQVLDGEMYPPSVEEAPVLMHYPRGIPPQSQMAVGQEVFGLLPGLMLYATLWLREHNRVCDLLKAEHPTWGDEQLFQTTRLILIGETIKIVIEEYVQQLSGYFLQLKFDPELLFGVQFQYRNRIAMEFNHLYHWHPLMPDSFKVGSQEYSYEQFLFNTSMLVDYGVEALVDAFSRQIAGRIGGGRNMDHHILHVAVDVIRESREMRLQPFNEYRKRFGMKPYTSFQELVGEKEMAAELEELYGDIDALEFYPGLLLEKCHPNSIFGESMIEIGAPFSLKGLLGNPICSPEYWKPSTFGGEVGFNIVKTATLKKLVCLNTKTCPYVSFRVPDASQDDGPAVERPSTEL
- Type: functional, cell-based, HL-60
- Description: In vitro inhibitory activity against Prostaglandin G/H synthase 1 in retinoic acid stimulated HL-60 cells
OUTCOME MEASURE: IC50 (nM)
Hi! Could you send only the number? It should be in nM, unit omitted.

# get_value(readout= IC50, system= Prostaglandin G/H synthase 1 (Homo sapiens)) for COc1ccc(-c2ccc(CCC(=O)O)n2-c2ccc(C(C)=O)cc2)cc1
1000

* * *

- Species on record: Homo sapiens
- EXPERIMENT NOTES: tissue or blood
- Description: Inhibition of LPS-induced PGE-2 production in the human whole blood.
OUTCOME MEASURE: pIC50
Please note pIC50 is a logarithmic value: minus log10 of concentration in mol/L. Answer with that number alone.

Entry CN(C)S(=O)(=O)c1ccc(-n2c(CCC(=O)O)ccc2-c2ccc(F)cc2)cc1 has what pIC50?
5.36
